Listed here are binders together with their documented OD signal at 450 nm.
# tested_on: T1, hFGFR4(D2,D3)-Histag (human, UniProt P22455 22-365)
# T1 construct: also called extracellular domain of FGF-R4 deleted of its D1 domain
# assay_notes: ELISA, HEK293 supernatant IgG on coated antigen
Numeric only. Scale: OD 450 nm

Worked examples, 3 binders total:
anti-FGFR4 antibody clone 31 (human IgG1 format) (antibody, V domains shown, As for clone 8: human IgG1 format from HEK293; also called antibody 31) VH: EVQLLESGGGLVQPGGSLRLSCAASGFTFSRYFMKWVRQAPGKGLEWVSWISPSGGLTEYADSVKGRFTISRDNSKNTLYLQMNSLRAEDTAVYYCARASYGAWLDYWGQGTLVTVSS VL: DIQMTQSPSSLSLSPGERATLSCRASQSINRNLGWYQQKPGQAPRLLIYGASTRATGIPARFTGSGSGTEFSLTISSLQSEDYAIYYCQQYDNWPIIFGQGTRLEIKG: 3.74
anti-FGFR4 antibody clone 8 (human IgG1 format) (antibody, V domains shown, also called antibody 8) VH: EVQLLESGGGLVQPGGSLRLSCAASGFTFSPYWMGWVRQAPGKGLEWVSVIWPSGGTTDYADSVKGRFTISRDNSKNTLYLQMNSLRAEDTAVYYCARVHPAGHNDHWGQGTLVTVSS VL: QSELTQPPSASGTPGQRVTISCSGGYSNMGSNYAHWYQQLPGTAPKLLIYNNNQRPSGVPDRFSGSKSGTSASLAISGLRSEDEADYYCAAWDDSLSGPVFGGGTKLTVLG: 3.86
anti-FGFR4 antibody clone 36 (human IgG1 format) (antibody, V domains shown, As for clone 8: human IgG1 format from HEK293; also called antibody 36) VH: EVQLLESGGGLVQPGGSLRLSCAASGFTFSHYWMGWVRQAPGKGLEWVSVISPSGGLTIYADSVKGRFTISRDNSKNTLYLQMNSLRAEDTAVYYCARSSGWALDAFDIWGQGTMVTVSS VL: QYELTQPPSASGTPGQRVTISCSGSSSNIGSNIVHWYQQLPGTAPKLLIYGNNQRPSGVPDRFSVSKSGSSASLAISGLQSEDEADYYCASWDDSLKAFYVFGTGTKVTVLG: 3.62

Here is another binder to look at.
Q: // query OD signal at 450 nm value for entry anti-FGFR4 antibody clone 33 (human IgG1 format) (antibody, V domains shown, As for clone 8: human IgG1 format from HEK293; also called antibody 33) VH: EVQLLESGGGLVQPGGSLRLSCAASGFTFSTYWMAWVRQAPGKGLEWVSVIGPSGGMTVYADSVKGRFTISRDNSKNTLYLQMNSLRAEDTAVYYCARINSGSSHFDYWGQGTLVTVSS VL: QSVLTQPPSASGTPGQGVTISCSGSSSNIGSNSVNWYQQLPGAAPKLLIYSNNLRPSGVPARFSGSKSGTSASLAISGLRSEDEADYYCAAWDDGLDAYVVFGGGTKLTVLG
Ans: 3.62
